Where do these numbers come from? They come from patent US4242512A.

System: aspirin-induced gastric ulcers in pylorus-ligated rats
Assay: Effect on aspirin-induced gastric ulcers in pylorus-ligated rats
Assay type: in vivo
Conditions: LD50 mice p.o. / ED50 pylorus-ligated rats i.d.; Table 2
Observation Type: Safety Margin LD50/ED50 (aspirin-induced ulcers)
Answer with a bare number; do not write a unit.

Asked: Please report the measured Safety Margin LD50/ED50 (aspirin-induced ulcers) for NC(=S)C(c1ccccc1)c1cccnn1 (centres unmarked) [Ex. 1, 2-Phenyl-2-(3-pyridazinyl)thioacetamide]
Given back: 85.12

Asked: Please report the measured Safety Margin LD50/ED50 (aspirin-induced ulcers) for CCC(C(N)=S)c1ccccn1 (centres unmarked)
Given back: 12.88

Asked: Please report the measured Safety Margin LD50/ED50 (aspirin-induced ulcers) for NC(=S)C(c1ccccc1)c1cnccn1 (centres unmarked)
Given back: 30.80

Asked: Please report the measured Safety Margin LD50/ED50 (aspirin-induced ulcers) for Cc1ccc(C(C(N)=S)c2ccccc2)nn1 (centres unmarked)
Given back: 80.95

Asked: Please report the measured Safety Margin LD50/ED50 (aspirin-induced ulcers) for NC(=S)C(c1ccccc1)c1ncccn1 (centres unmarked)
Given back: 64.86

----------
Test system: Shay ulceration in rats
Assay: Effect on Shay ulceration in rats
Assay type: in vivo
Details: LD50 mice p.o. / ED50 Shay rats i.d.; Table 3
Binary classification by Safety Margin LD50/ED50 (Shay ulceration), with 50 as an inclusive lower bound for MET; all other cases are NOT MET.

Asked: Answer whether Safety Margin LD50/ED50 (Shay ulceration) of Cc1ccc(C(C(N)=S)c2ccccc2)nn1 (centres unmarked) [Ex. 2] is greater than or equal to 50.
Given back: MET

Asked: Answer whether Safety Margin LD50/ED50 (Shay ulceration) of NC(=S)C(c1ccccc1)c1cnccn1 (centres unmarked) [U.S. Pat. No. 3,624,085 Ex. 12] is greater than or equal to 50.
Given back: NOT MET

Asked: Answer whether Safety Margin LD50/ED50 (Shay ulceration) of NC(=S)C(c1ccccc1)c1cccnn1 (centres unmarked) [Ex. 1, 2-Phenyl-2-(3-pyridazinyl)thioacetamide] is greater than or equal to 50.
Given back: MET

Asked: Answer whether Safety Margin LD50/ED50 (Shay ulceration) of NC(=S)C(c1ccccc1)c1ncccn1 (centres unmarked) [U.S. Pat. No. 3,624,085 Ex. 9] is greater than or equal to 50.
Given back: NOT MET

Asked: Answer whether Safety Margin LD50/ED50 (Shay ulceration) of CCC(C(N)=S)c1ccccn1 (centres unmarked) [U.S. Pat. No. 3,686,190 Ex. 1] is greater than or equal to 50.
Given back: NOT MET

----------
Test system: Shay ulceration in rats
Test: Effect on Shay ulceration in rats
Assay type: in vivo
Settings: Rattus norvegicus; i.d., rats, 13 hours after drug treatment
Observation Type: ED50 (mg/kg)
Give your result in mg/kg as a bare value.

Asked: Please report the measured ED50 for Cc1ccc(C(C(N)=S)c2ccccc2)nn1 (centres unmarked)
Given back: 11

Asked: Please report the measured ED50 for NC(=S)C(c1ccccc1)c1cnccn1 (centres unmarked)
Given back: 28

Asked: Please report the measured ED50 for NC(=S)C(c1ccccc1)c1cccnn1 (centres unmarked) [Ex. 1, 2-Phenyl-2-(3-pyridazinyl)thioacetamide]
Given back: 12.5

Asked: Please report the measured ED50 for CCC(C(N)=S)c1ccccn1 (centres unmarked)
Given back: 34

Asked: Please report the measured ED50 for NC(=S)C(c1ccccc1)c1ncccn1 (centres unmarked)
Given back: 26

----------
Assay: Acute toxicity in mice
Conditions: mouse, in vivo, po, Table 2, read-out: LD50 (Table 2, head printed "50 (mg/kg) P.O. Orally")
Please provide measured LD50 for the entries that follow.
Give your result in mg/kg as a bare value.

Asked: Please report the measured LD50 for NC(=S)C(c1ccccc1)c1cccnn1 (centres unmarked) [Ex. 1, 2-Phenyl-2-(3-pyridazinyl)thioacetamide]
Given back: 980

Asked: Please report the measured LD50 for NC(=S)C(c1ccccc1)c1cnccn1 (centres unmarked)
Given back: 924

Asked: Please report the measured LD50 for CCC(C(N)=S)c1ccccn1 (centres unmarked)
Given back: 670

Asked: Please report the measured LD50 for Cc1ccc(C(C(N)=S)c2ccccc2)nn1 (centres unmarked)
Given back: 1700

Asked: Please report the measured LD50 for NC(=S)C(c1ccccc1)c1ncccn1 (centres unmarked)
Given back: 1200

----------
Tested on: Shay ulceration in rats
Assay: Effect on Shay ulceration in rats
Format: in vivo
Conditions: 30 mg/kg i.d., 10 rats, 13 hours after drug treatment
Method: As illustrative evidence of the remarkable high gastric antisecretory activity of the compounds of the invention, tests were conducted on, and comparisons made with, closely similar compounds in the prior art. The following Tables 2 and 3 show the results of such tests according to previously identified techniques from the literature. Effect on Shay ulceration in rats and acute toxicity in mice. Each drug was given either intraduodenally (i.d.) immediately after […]
Observation Type: Inhibition (Shay ulceration) (%)
Give your result in % as a bare value.

Asked: Please report the measured Inhibition (Shay ulceration) for Cc1ccc(C(C(N)=S)c2ccccc2)nn1 (centres unmarked) [Ex. 2]
Given back: 91.7

Asked: Please report the measured Inhibition (Shay ulceration) for NC(=S)C(c1ccccc1)c1ncccn1 (centres unmarked) [U.S. Pat. No. 3,624,085 Ex. 9]
Given back: 65.0

Asked: Please report the measured Inhibition (Shay ulceration) for CCC(C(N)=S)c1ccccn1 (centres unmarked) [U.S. Pat. No. 3,686,190 Ex. 1]
Given back: 46.5

Asked: Please report the measured Inhibition (Shay ulceration) for NC(=S)C(c1ccccc1)c1cccnn1 (centres unmarked) [Ex. 1, 2-Phenyl-2-(3-pyridazinyl)thioacetamide]
Given back: 95.8

Asked: Please report the measured Inhibition (Shay ulceration) for NC(=S)C(c1ccccc1)c1cnccn1 (centres unmarked) [U.S. Pat. No. 3,624,085 Ex. 12]
Given back: 57.7
